# Assay text: Extraction (partition) into ethyl acetate
# Format: physicochemical
Quantity: Fraction extracted into ethyl acetate

Data request: Field request: Fraction extracted into ethyl acetate | item: `O=C(O)CNC(=O)CNC(=O)CNC(=O)CCc1ccc(O)c([125I])c1`
Data returned: 27.2%
